B1: Zinc finger homeobox protein 3, residues 2147 to 2202; numbered along this chain, Q15911 (parent)
chain: RPRTRITDDQLRVLRQYFDINNSPSEEQIKEMADKSGLPQKVIKHWFRNTLFKERQ

Variants of: B1
Assay Comment: abundance fitness (aPCA) (normalised: wild type 0, dead -1); higher = more abundant; growth selection in yeast, the domain comes from the species named
Condition Context: Homo sapiens
Metric Name: abundance fitness

Q: Suppose we examine the variant F18D ; what abundance fitness value has been reported?
Ans: -0.419

Q: Fill in: abundance fitness of R15S is ___
Ans: -0.067

Q: Can you look up the measured abundance fitness of R3K for me?
Ans: -0.25
